System: XIP peptide (Xip251-270)
procedure-details: compounds binding XIP fragment 251-270 – biochemical, small-molecule microarray, fluorescence 635/667 nm, 0.5 µg/mL protein, primary screen (AID 1183)
test-settings: fluorescence 635 nm, higher = more signal
Rule: composite z-score of 0.7 or more gives class 1; anything lower gives class 0.

Example results:
INSERT INTO results (compound, assigned_label) VALUES
  ('COCCCNC(=O)[C@@]1(Cc2ccccc2CN=[N+]=[N-])N=C(c2ccc(OCCCO)cc2)O[C@H]1c1ccccc1N=[N+]=[N-]', 'class 0'),
  ('COCCOC(=O)N1C(=O)[C@@]2(c3cc(C#Cc4ccc(OC)cc4)ccc31)[C@H](c1ccc(OCCO)cc1)N1[C@H](c3ccccc3)[C@H](c3ccccc3)OC(=O)[C@H]1[C@@H]2C(N)=O', 'class 1'),
  ('COCCOC(=O)N1C(=O)[C@@]2(c3cc(C#CCC(C(=O)OC)C(=O)OC)ccc31)[C@H](c1ccc(OCCO)cc1)N1[C@H](c3ccccc3)[C@H](c3ccccc3)OC(=O)[C@H]1[C@@H]2C(N)=O', 'class 1'),
  ('CCOC(=O)C[C@H]1[C@H](OC(=O)c2ccccc2-c2ccccc2)[C@@H](NC(=O)c2ccccc2)c2cc(OCCCO)ccc2N1C(=O)Cc1ccc(OC)cc1', 'class 0');

q: Textbook exercise: given the entry N#Cc1ccc(NN2C(C(O)c3ccco3)C=CC3C(=O)N(c4ccccc4)C(=O)C32)cc1 (configuration not stated) , state whether its composite z-score is greater than or equal to 0.7.
a: class 0

q: Textbook exercise: given the entry COc1ccc(CCNC(=O)[C@@H]2c3ccccc3C(=O)N(Cc3ccccc3C(F)(F)F)[C@H]2c2ccc(CO)cc2)cc1 , state whether its composite z-score is greater than or equal to 0.7.
a: class 1

* * *

procedure-details: budding yeast growth changes without added modifier – OD600, strain BY4716, 24 h, basal condition, primary screen (AID 1173)
test-settings: S. cerevisiae BY4716 growth, OD600, 24 h; higher = more signal, called active from +8 up or from −8 down
reported-metric: z-score
// print number alone

Below are worked cases with known answers.
INSERT INTO results (compound, recorded_result) VALUES
  ('CCCCC(O)C1C=CC2C(=O)N(Cc3ccccc3)C(=O)C2N1n1cnnc1 (centres undefined)', 0.0393),
  ('CCCNC(=O)[C@@H]1c2ccccc2C(=O)N(CC23CC4CC(CC(C4)C2)C3)[C@H]1c1ccc(CO)cc1', -0.774),
  ('O=C(C=C(CC(O)c1cccc(Cl)c1)OCCF)OCCF (centres undefined)', -1.47),
  ('CCC[C@@H]1C[C@@]1(CCC)[C@@H](NC(=O)c1cccs1)c1ccc(Cl)cc1', -0.779),
  ('C=C[C@@H](O)[C@H]1CC(c2ccccc2)=NO1', -2.38),
  ('COc1ccccc1CN1C(=O)c2ccccc2[C@@H](C(=O)NCC(C)C)[C@@H]1c1ccc(CO)cc1', 0.352),
  ('CCCCCCCCCCC(O)C1C=CC2C(=O)NC(=O)C2N1Nc1ccccn1 (centres undefined)', -10.4),
  ('CCCCCCC#C[Si](O[C@H](c1ccccc1)c1cn(Cc2cccc(Cl)c2)nn1)(C(C)C)C(C)C', -0.419);

# context switch: different compound, same z-score
q: Which z-score reading was recorded for the compound COCCOC(=O)N1C(=O)[C@@]2(c3cc(C#Cc4ccc(OC)cc4)ccc31)[C@H](C(=O)N1CCc3cc(OC)c(OC)cc3C1)[C@H]1C(=O)O[C@H](c3ccccc3)[C@H](c3ccccc3)N1[C@@H]2c1ccc(OCCO)cc1 ?
a: 1.39
